# Assay Comment: Pharmacokinetics of aminoglycosides in the rat
# Details: in vivo, sc, 10 mg/kg
Measured Metric: Tmax (min)
Respond with the bare value in min.

Qu. Need Tmax, item CN[C@@H]1[C@@H](O)[C@@H](O[C@@H]2[C@@H](O)[C@H](O[C@H]3O[C@H]([C@@H](C)O)[C@@H](O)[C@H](O)[C@H]3N)[C@@H](N)C[C@H]2N)OC[C@]1(C)O [G418, reference compound]
Ans. 19.8

====

# Assay Comment: Pharmacokinetics of aminoglycosides in the rat
# Details: in vivo, sc, 10 mg/kg
Measured Metric: AUC(0-t)
Respond with a number, then the unit of measure.

Qu. Need AUC(0-t), item CN[C@@H]1[C@@H](O)[C@@H](O[C@@H]2[C@@H](O)[C@H](O[C@H]3O[C@H]([C@@H](C)O)[C@@H](O)[C@H](O)[C@H]3N)[C@@H](N)C[C@H]2N)OC[C@]1(C)O [G418, reference compound]
Ans. 15000 ng·h/mL

Entry source: paper PMC6201930
